Hey, just so you know, these numbers are from patent US10759751B2.

# target_or_test_system: human muscarinic M1 receptor (Homo sapiens)
# experimental_protocol: Alphascreen Surefire phospho-ERK1/2 functional assay, M1
# Type: cell-based
# experimental_context: CHO cells stably expressing human M1; phospho-ERK1/2; read-out: pEC50 M1 (converted)
For each of the compounds below, state its log10 of EC50.
Heads up, the numbers here are log10 of EC50 in nM units.

Check out these entries, answers already filled in.
COc1ccc(C2(C#N)CCC(N3CCC4(CC(c5nc(C)no5)C4)C3)CC2)nc1 (single isomer, unassigned) [21-4 Isomer 4]
3.33
CCOC(=O)N[C@H]1CCN(C2CCC3(CC2)C(=O)Nc2ncc(Cl)cc23)C1 (single isomer, unassigned) [2-17 isomer 1]
1.75
COc1ccc2c(c1)C1(CCC(N3CCC[C@@H](c4nc(C)no4)C3)CC1)C(=O)N2 (single isomer, unassigned) [22-2 Isomer 1]
1.85
CCOC(=O)N1CCC2(CCN(C3CCC(C#N)(c4ccccc4)CC3)CC2)C1 (single isomer, unassigned) [13-1 Isomer 2]
-0.35
CCOC(=O)N[C@H]1CCN(C2CCC3(CC2)C(=O)Nc2ccc(OC)nc23)C1 (single isomer, unassigned) [2-20 isomer 1]
2.57

// below: log10 of EC50 requested for another compound
Name the recorded log10 of EC50 of the item CCOC(=O)N1CCCN(C2CCC3(CC2)CN(S(C)(=O)=O)c2ncccc23)CC1 (single isomer, unassigned) [4-19 isomer 1] in your answer.
3.83

* * *

# target_or_test_system: human muscarinic M4 receptor (Homo sapiens, UniProt P08173)
# Construct: expressed in transfected cells
# Sequence (P08173 whole entry): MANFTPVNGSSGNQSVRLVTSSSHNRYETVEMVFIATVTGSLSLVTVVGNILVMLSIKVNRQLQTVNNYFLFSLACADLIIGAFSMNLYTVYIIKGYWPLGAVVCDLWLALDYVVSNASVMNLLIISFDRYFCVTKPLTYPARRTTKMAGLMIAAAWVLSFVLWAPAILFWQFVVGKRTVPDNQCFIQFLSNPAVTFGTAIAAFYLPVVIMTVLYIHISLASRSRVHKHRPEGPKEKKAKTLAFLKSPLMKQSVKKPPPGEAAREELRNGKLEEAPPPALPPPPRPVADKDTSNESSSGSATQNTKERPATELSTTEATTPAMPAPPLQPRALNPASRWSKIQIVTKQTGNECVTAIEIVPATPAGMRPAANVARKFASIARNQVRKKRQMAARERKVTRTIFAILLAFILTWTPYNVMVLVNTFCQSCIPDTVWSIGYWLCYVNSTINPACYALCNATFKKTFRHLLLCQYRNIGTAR
# experimental_protocol: Alphascreen Surefire phospho-ERK1/2 functional assay, M4
# Assay type: cell-based
# experimental_context: CHO, read-out: M4 % Emax cf. ACh, CHO cells stably expressing human M4; Emax relative to ACh
measurement_kind: Emax (%)
Numbers only, in %.

Previously resolved entries follow.
CCOC(=O)N1CC2(CCN(C3CCC(C#N)(c4ccccc4)CC3)CC2)C1 (single isomer, unassigned) [11-1 Isomer 2]
19
CCOC(=O)N1CCCN(C2CCC3(CC2)C(=O)Nc2ncc(Cl)cc23)CC1 (single isomer, unassigned) [4-16 isomer 1]
5

Supply Emax measured with human muscarinic M4 receptor (Homo sapiens, UniProt P08173) for CCOC(=O)N1CCCN(C2CCC(C#N)(c3cccc(C)c3)CC2)CC1 (mixture of isomers) [3-8 mixture of isomers] .
62

* * *

# target_or_test_system: human muscarinic M1 receptor (Homo sapiens, UniProt P11229)
# Sequence (P11229 1-460): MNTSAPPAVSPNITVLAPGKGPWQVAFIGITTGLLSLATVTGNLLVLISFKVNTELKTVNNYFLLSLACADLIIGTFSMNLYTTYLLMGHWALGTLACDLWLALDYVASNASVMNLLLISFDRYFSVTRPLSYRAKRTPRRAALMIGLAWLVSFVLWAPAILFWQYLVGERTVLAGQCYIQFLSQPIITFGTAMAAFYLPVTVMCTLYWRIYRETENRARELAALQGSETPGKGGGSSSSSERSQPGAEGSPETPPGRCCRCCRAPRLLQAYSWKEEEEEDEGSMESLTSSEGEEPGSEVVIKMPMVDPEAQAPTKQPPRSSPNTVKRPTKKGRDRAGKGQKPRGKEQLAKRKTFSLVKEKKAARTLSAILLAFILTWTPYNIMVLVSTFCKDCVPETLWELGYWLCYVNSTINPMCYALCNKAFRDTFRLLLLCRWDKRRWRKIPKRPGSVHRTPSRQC
# experimental_protocol: Alphascreen Surefire phospho-ERK1/2 functional assay, M1
# Type: cell-based
# experimental_context: CHO cells stably expressing human M1; phospho-ERK1/2; read-out: pEC50 M1 (converted)
Give measured EC50 for each item. Keep answers brief.
Answers are plain numbers, in nM.

Use these answered entries as a reference point.
COc1ccc2c(c1)C1(CCC(N3CCC4(CC(c5nc(C)no5)C4)C3)CC1)C(=O)N2 (single isomer, unassigned) [26-2 Isomer 3]
224
Cc1noc(C2CC3(CCN(C4CCC(C#N)(c5ccc(F)cn5)CC4)C3)C2)n1 (single isomer, unassigned) [21-3 Isomer 3]
562
COC(=O)N1CCCN(C2CCC(C#N)(c3ccccc3)CC2)CC1 (mixture of isomers) [3-28 mixture of isomers]
776

Field: EC50. Fill in for each record below.
1. CCOC(=O)N1CC2CN(C3CCC(C#N)(c4ccccc4)CC3)CCC21 (single isomer, unassigned) [17-1 Isomer 2]
2. CCOC(=O)N1CCCN(C2CCC3(CC2)C(=O)Nc2cc(C)ccc23)CC1 (single isomer, unassigned) [4-6 isomer 1]
3. CC#CCOC(=O)N1CCCN(C2CCC(C#N)(c3ccc(OC)cn3)CC2)CC1 (single isomer, unassigned) [3-32 Isomer 1]

1: 97.7; 2: 575; 3: 22.4
